Reference source: PubChem BioAssay (NCI)

growth listing for selected compounds.
Test system: SW-620 colon
method: NCI-60 one-dose screen, 48 h (100 = growth as untreated, 0 = no growth, -100 = all killed)
condition context: 10 µM
The panel holds about 83,000 compounds, 20% with a hit somewhere; the sample as a whole holds those more often. Activity calls are given as the source filed them. Rule for the calls: active = growth percent below 10; inactive = the rest.

Prompt: Recorded growth for `Cc1cc(=O)[nH]c(NN=C2CCCC2)n1` , please?
Response: 111% (inactive)

Prompt: Recorded growth for `COc1cccc(O)c1O` , please?
Response: 42.6% (inactive)

Prompt: Recorded growth for `CC(C)CCCC(=O)O` , please?
Response: 100% (inactive)

Prompt: Recorded growth for `CN(C)c1ccc(C(c2ccc(O)cc2)c2ccc(N(C)C)cc2)cc1` , please?
Response: 96.5% (inactive)

Prompt: Recorded growth for `N#CC(=Nc1cccc(F)c1)C1=C(O)c2ccccc2C1=O` , please?
Response: 95.4% (inactive)
